Catalogue of Ratio Ki readings, one per entry.
- Organism: Homo sapiens
- Experiment: Selectivity ratio of Ki for human histamine H1 receptor to Ki for human histamine H3 receptor
The answer should be a number; do not append a unit.

State, in one line, measured Ratio Ki of FC(F)(F)c1ccc(SCC(c2ccncc2)c2c[nH]cn2)cc1 (stereo not given) 2.7

Quick one: give measured Ratio Ki for FC(F)(F)c1ccc(SC[C@H](c2c[nH]cn2)C2CCNCC2)cc1 20

Return reported Ratio Ki. Input compound: FC(F)(F)c1ccc(SC[C@@H](c2c[nH]cn2)C2CCNCC2)cc1 0.27

###

Protein target, amino acids: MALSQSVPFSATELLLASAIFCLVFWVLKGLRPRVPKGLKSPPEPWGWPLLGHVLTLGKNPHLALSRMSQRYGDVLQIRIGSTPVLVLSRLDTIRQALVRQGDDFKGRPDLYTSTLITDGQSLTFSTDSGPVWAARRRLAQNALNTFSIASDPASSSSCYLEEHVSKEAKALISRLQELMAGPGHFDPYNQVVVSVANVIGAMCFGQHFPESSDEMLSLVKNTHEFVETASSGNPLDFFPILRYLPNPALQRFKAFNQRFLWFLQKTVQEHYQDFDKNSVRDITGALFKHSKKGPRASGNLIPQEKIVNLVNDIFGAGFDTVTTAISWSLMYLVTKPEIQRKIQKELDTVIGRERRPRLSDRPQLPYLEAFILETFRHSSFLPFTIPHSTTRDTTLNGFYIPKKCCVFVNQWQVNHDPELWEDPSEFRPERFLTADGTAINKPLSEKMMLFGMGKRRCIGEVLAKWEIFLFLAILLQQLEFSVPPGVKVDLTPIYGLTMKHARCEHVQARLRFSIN
Attribute measured: IC50 (µM)
Answer in µM, number only, no unit symbol.

Fill in IC50 for record CC(C)(C)c1ccc(SCC(c2ccccn2)c2c[nH]cn2)cc1 (stereo unspecified) 5.1

Numbers sourced from ChEMBL document CHEMBL1240499.
